Values compiled from patent US20250263753A1.

- testedSystem: PI3Kα (His-PIK3CA/PIK3R1, p110 alpha/p85 alpha) (Homo sapiens (Human), UniProt P42336)
- Sequence (P42336 whole entry, species assumed): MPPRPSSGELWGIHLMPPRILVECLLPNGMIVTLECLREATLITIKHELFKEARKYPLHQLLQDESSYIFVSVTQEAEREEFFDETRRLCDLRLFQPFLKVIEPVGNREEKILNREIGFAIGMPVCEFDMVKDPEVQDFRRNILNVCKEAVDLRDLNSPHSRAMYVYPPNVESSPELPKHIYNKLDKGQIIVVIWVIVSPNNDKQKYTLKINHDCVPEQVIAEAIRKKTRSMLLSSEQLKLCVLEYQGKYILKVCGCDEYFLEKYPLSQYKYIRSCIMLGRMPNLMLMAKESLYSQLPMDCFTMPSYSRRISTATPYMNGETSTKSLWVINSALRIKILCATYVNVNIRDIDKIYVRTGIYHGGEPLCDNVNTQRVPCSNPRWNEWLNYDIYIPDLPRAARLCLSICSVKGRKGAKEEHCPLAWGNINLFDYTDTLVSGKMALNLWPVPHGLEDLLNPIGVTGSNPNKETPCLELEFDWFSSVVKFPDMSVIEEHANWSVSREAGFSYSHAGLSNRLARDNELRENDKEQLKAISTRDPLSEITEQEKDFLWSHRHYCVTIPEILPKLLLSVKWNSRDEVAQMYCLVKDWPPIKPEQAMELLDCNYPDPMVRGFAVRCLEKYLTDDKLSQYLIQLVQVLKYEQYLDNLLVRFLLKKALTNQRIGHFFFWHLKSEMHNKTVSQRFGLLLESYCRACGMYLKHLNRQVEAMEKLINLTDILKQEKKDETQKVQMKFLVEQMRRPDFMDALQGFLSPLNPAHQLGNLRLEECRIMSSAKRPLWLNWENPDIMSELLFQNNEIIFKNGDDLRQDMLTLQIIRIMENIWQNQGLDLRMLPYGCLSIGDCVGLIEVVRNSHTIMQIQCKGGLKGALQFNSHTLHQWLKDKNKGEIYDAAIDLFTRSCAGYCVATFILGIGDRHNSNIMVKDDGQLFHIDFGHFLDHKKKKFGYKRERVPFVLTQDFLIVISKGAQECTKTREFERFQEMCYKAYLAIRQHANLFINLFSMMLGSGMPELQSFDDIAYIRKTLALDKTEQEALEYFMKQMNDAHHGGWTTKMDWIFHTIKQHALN
- Sequence (P27986 whole entry partner, species assumed): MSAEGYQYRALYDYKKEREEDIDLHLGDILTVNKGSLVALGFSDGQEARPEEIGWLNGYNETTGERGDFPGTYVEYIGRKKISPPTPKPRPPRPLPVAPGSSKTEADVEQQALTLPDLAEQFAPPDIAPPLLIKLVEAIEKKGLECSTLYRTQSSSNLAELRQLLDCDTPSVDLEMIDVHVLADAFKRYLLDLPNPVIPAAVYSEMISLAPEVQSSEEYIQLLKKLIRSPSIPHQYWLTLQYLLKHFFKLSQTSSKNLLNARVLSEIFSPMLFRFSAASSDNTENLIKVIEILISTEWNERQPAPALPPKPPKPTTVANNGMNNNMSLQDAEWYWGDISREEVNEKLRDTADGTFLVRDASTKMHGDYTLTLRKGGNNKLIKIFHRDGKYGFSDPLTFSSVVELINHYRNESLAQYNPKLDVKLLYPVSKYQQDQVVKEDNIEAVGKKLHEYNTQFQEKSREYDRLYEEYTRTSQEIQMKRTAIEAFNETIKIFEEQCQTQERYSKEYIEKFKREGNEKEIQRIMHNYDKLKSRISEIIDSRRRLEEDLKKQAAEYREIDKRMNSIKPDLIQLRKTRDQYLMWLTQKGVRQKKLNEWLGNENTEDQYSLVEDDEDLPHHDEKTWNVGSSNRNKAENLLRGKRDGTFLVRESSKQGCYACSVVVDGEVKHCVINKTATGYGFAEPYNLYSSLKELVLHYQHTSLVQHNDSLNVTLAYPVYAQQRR
- assayName: PI3Kα biochemical assay (HTRF/FRET probe)
- Format: binding
- experimentalConditions: class symbol

{"molecule": "Cc1cc2ncnn2cc1Nc1ncc2c(n1)N(C13CCC(O)(CC1)C3)C(=O)C21CC1 [Compound 66]", "IC50": "10 to 100 nM"}
{"molecule": "Cc1cc(-c2cnco2)c(F)cc1Nc1ncc2c(n1)n(C13CCC(O)(CC1)C3)c(=O)n2C [Compound 36]", "IC50": "100 to 1000 nM"}
{"molecule": "Cc1cc2ncnn2cc1Nc1ncc2c(n1)n(C13CCC(O)(CC1)CC3)c(=O)n2C [Compound 78]", "IC50": "100 to 1000 nM"}
{"molecule": "Cc1cc2ncnn2cc1Nc1ncc2c(n1)n(C13CC(C(F)(F)F)(C1)C3)c(=O)n2C [Compound 18]", "IC50": "≥ 1000 nM"}
{"molecule": "Cc1cc2ncccc2cc1Nc1ncc2c(n1)N(C13CC(F)(C1)C3)C(=O)C21CC1 [Compound 71]", "IC50": "100 to 1000 nM"}
{"molecule": "Cc1cc2c(cc1Nc1ncc3c(n1)n(C14CCC(C#N)(CC1)CC4)c(=O)n3C)OCO2 [Compound 24]", "IC50": "100 to 1000 nM"}
{"molecule": "Cc1cc2nccnc2cc1Nc1ncc2c(n1)n(C13CCC(O)(CC1)C3)c(=S)n2C [Compound 33]", "IC50": "100 to 1000 nM"}
{"molecule": "Cc1cc2nsnc2cc1Nc1ncc2c(n1)N(C13CC(F)(C1)C3)C(=O)C21CC1 [Compound 73]", "IC50": "100 to 1000 nM"}
{"molecule": "COC12CCC(n3c(=O)n(C)c4cnc(Nc5cc(F)c(-c6cnco6)cc5C)nc43)(C1)C2 [Compound 41]", "IC50": "100 to 1000 nM"}
{"molecule": "Cc1cc2ncnn2cc1Nc1ncc2c(n1)N(C13CC(F)(C1)C3)C(=O)C21CC1 [Compound 70]", "IC50": "≥ 1000 nM"}
{"molecule": "Cc1cc2nccnc2cc1Nc1ncc2c(C)nn(C34CC(C3)C4)c2n1 [Compound 49]", "IC50": "100 to 1000 nM"}
{"molecule": "Cc1cc2nsnc2cc1Nc1ncc2c(n1)N(C13CCC(O)(CC1)C3)CC(=O)N2C [Compound 55]", "IC50": "10 to 100 nM"}
{"molecule": "COC12CCC(n3c(=O)n(C)c4cnc(Nc5cc(F)c(C(N)=O)cc5C)nc43)(C1)C2 [Compound 40]", "IC50": "100 to 1000 nM"}
{"molecule": "[2H]C([2H])([2H])n1c(=O)n(C23CCC(O)(CC2)C3)c2nc(Nc3cn4ncnc4cc3C)ncc21 [Compound 77]", "IC50": "100 to 1000 nM"}
{"molecule": "Cc1cc2nonc2cc1Nc1ncc2c(n1)N(C13CCC(O)(CC1)C3)CC(=O)N2C [Compound 60]", "IC50": "100 to 1000 nM"}
{"molecule": "Cc1cc2nsnc2cc1Nc1ncc2c(n1)n(C13CC(F)(C1)C3)c(=O)n2C [Compound 14]", "IC50": "100 to 1000 nM"}
{"molecule": "COC12CCC(n3c(=O)n(C)c4cnc(Nc5cc6c(cc5C)OCCO6)nc43)(CC1)C2 [Compound 10]", "IC50": "10 to 100 nM"}
{"molecule": "COC12CCC(n3c(=O)n(C)c4cnc(Nc5cc6nccnc6cc5C)nc43)(CC1)C2 [Compound 9]", "IC50": "10 to 100 nM"}
{"molecule": "Cc1cc2ncnn2cc1Nc1ncc2c(n1)n(C13CC(CC#N)(C1)C3)c(=O)n2C [Compound 22]", "IC50": "100 to 1000 nM"}
{"molecule": "COC12CCC(N3CC(=O)N(C)c4cnc(Nc5cc6cccnc6cc5C)nc43)(CC1)C2 [Compound 65]", "IC50": "10 to 100 nM"}
{"molecule": "COC12CCC(n3c(=O)n(C)c4cnc(Nc5cc6c(cc5C)OCO6)nc43)(CC1)C2 [Compound 7]", "IC50": "100 to 1000 nM"}
{"molecule": "COC12CCC(n3c(=O)n(C)c4cnc(Nc5cn6ncnc6cc5C)nc43)(C1)C2 [Compound 29]", "IC50": "≥ 1000 nM"}
{"molecule": "Cc1cc2c(cc1Nc1ncc3c(n1)n(C14CC(C#N)(C1)C4)c(=O)n3C)OCO2 [Compound 17]", "IC50": "≥ 1000 nM"}
{"molecule": "COC12CCC(n3c(=O)n(C)c4cnc(Nc5cn6ncnc6cc5C)nc43)(CC1)C2 [Compound 6]", "IC50": "100 to 1000 nM"}
{"molecule": "COC12CCC(N3CC(=O)N(C)c4cnc(Nc5cc6nsnc6cc5C)nc43)(CC1)C2 [Compound 64]", "IC50": "10 to 100 nM"}
{"molecule": "Cc1cc2c(cc1Nc1ncc3c(n1)n(C14CC(F)(C1)C4)c(=O)n3C)OCCO2 [Compound 16]", "IC50": "≥ 1000 nM"}
{"molecule": "Cc1cc2ncnn2cc1Nc1ncc2c(n1)n(C13CC(F)(C1)C3)c(=S)n2C [Compound 34]", "IC50": "≥ 1000 nM"}
{"molecule": "Cc1cc2c(cc1Nc1ncc3c(n1)n(C14CCC(O)(CC1)CC4)c(=O)n3C)OCO2 [Compound 27]", "IC50": "10 to 100 nM"}
{"molecule": "Cc1cc2ncnn2cc1Nc1ncc2c(n1)N(C13CC(F)(C1)C3)CC(=O)N2C [Compound 54]", "IC50": "≥ 1000 nM"}
{"molecule": "COC12CCC(n3c(=O)n(C)c4cnc(Nc5cc6nsnc6cc5C)nc43)(CC1)C2 [Compound 8]", "IC50": "10 to 100 nM"}
{"molecule": "Cc1cc2c(cc1Nc1ncc3c(n1)N(C14CC(F)(C1)C4)CC(=O)N3C)OCO2 [Compound 56]", "IC50": "≥ 1000 nM"}
{"molecule": "Cc1cc2c(cc1Nc1ncc3c(n1)n([C@H]1C[C@@H]4CC[C@H]1C4)c(=O)n3C)OCO2 [Compound 46]", "IC50": "≥ 1000 nM"}

* * *

- testedSystem: DNA-PK (Homo sapiens (Human), UniProt P78527)
- assayName: DNA-PK biochemical assay (Reaction Biology HotSpot kinase assay, 10 μM ATP)
- experimentalConditions: class symbol
pIC50: −log10 of the molar value.
quantityMeasured: pIC50

{"smi": "Cc1cc2c(cc1Nc1ncc3c(n1)N(C14CC(F)(C1)C4)C(=O)C31CC1)OCO2", "result": "8.00 to 9.00"}
{"smi": "Cc1cc2ncnn2cc1Nc1ncc2c(C)nn(C34CC(C3)C4)c2n1", "result": "8.00 to 9.00"}
{"smi": "Cc1cc(-c2cnn(C)c2)ncc1Nc1ncc2c(n1)N(C13CC(F)(C1)C3)C(=O)C21CC1", "result": "8.00 to 9.00"}
{"smi": "Cc1cc2c(cc1Nc1ncc3c(n1)N(C14CCC(O)(CC1)C4)CC(=O)N3C)OCO2", "result": "7.00 to 8.00"}
{"smi": "Cc1cc2c(cc1Nc1ncc3c(n1)n(C14CC(C(F)(F)F)(C1)C4)c(=O)n3C)OCO2", "result": "8.00 to 9.00"}
{"smi": "Cc1cc2ncnn2cc1Nc1ncc2c(n1)n(C13CCC(O)(CC1)C3)c(=O)n2C", "result": "> 9.00"}
{"smi": "Cc1cc2c(cc1Nc1ncc3c(n1)n(C14CC(F)(C1)C4)c(=S)n3C)OCO2", "result": "6.00 to 7.00"}
{"smi": "Cc1cc(-c2cnn(C)c2)c(F)cc1Nc1ncc2c(n1)n(C13CC(F)(C1)C3)c(=O)n2C", "result": "7.00 to 8.00"}
{"smi": "Cc1cc(-c2cnco2)ncc1Nc1ncc2c(n1)N(C13CC(F)(C1)C3)C(=O)C21CC1", "result": "8.00 to 9.00"}
{"smi": "COC12CCC(n3c(=O)n(C)c4cnc(Nc5cn6ncnc6cc5C)nc43)(C1)C2", "result": "8.00 to 9.00"}
{"smi": "Cc1cc2ncnn2cc1Nc1ncc2c(n1)n(C13CC(CC#N)(C1)C3)c(=O)n2C", "result": "8.00 to 9.00"}
{"smi": "Cc1cc2nccnc2cc1Nc1ncc2c(n1)n(C13CCC(O)(CC1)C3)c(=S)n2C", "result": "8.00 to 9.00"}
{"smi": "Cc1cc2ncnn2cc1Nc1ncc2c(n1)n(C13CCC(O)(CC1)CC3)c(=O)n2C", "result": "> 9.00"}
{"smi": "Cc1cc2c(cc1Nc1ncc3c(C)nn(C45CC(C4)C5)c3n1)OCO2", "result": "8.00 to 9.00"}
{"smi": "Cc1cc2ncnn2cc1Nc1ncc2c(n1)N(C13CCC(O)(CC1)C3)CC(=O)N2C", "result": "8.00 to 9.00"}
{"smi": "Cc1cc2nccnc2cc1Nc1ncc2c(n1)n(C13CC(F)(C1)C3)c(=O)n2C", "result": "8.00 to 9.00"}
{"smi": "COCC12CC(n3c(=O)n(C)c4cnc(Nc5cn6ncnc6cc5C)nc43)(C1)C2", "result": "8.00 to 9.00"}
